Items are presented alongside their recorded melting point.

Recorded results for 4 compounds are shown here.
>>> result("Cc1[nH]c(=S)n(Nc2ccccc2)c1-c1ccccc1")
"224 to 226 °C"
>>> result("Cc1[nH]c(=S)n(Nc2cccc(Br)c2)c1-c1ccccc1")
"190 °C"
>>> result("Cc1[nH]c(=S)n(Nc2cccc(Cl)c2)c1-c1ccccc1")
"215 to 217 °C"
>>> result("Cc1ncn(Nc2cccc(Cl)c2)c1-c1cccc(Br)c1")
"164 °C"

Retrieve melting point measured for `COC(=O)c1[nH]c(=S)n(Nc2cccc(Cl)c2)c1C` and print it.
160 to 162 °C

Retrieve melting point measured for `Cc1cc(C)cc(Nn2cnc(C)c2-c2ccccc2)c1` and print it.
154 to 156 °C

====

measured-property: melting point (°C)

Recorded results for 6 compounds are shown here.
>>> result_number("Cc1[nH]c(=S)n(Nc2cccc(Cl)c2)c1-c1cccc(Br)c1 [Compound 9.05]")
196
>>> result_number("Cc1ncn(Nc2cccc(Cl)c2)c1-c1ccccc1 [Compound 13.01]")
218
>>> result_number("Cc1cccc(Nn2cnc(C)c2-c2ccccc2)c1 [Compound 13.09]")
159
>>> result_number("Cc1ncn(Nc2ccccc2)c1C [Compound 13.06, 4,5-Dimethyl-1-phenylamino-1H-imidazole]")
178
>>> result_number("Cc1ncn(Nc2ccc(F)cc2)c1-c1ccccc1 [Compound 13.10]")
155
>>> result_number("Cc1c(-c2ccccc2)[nH]c(=S)n1Nc1cccc(Cl)c1 [Compound 9.10]")
238

[P] Cc1cccc(Nn2c(-c3ccccc3)c(C)[nH]c2=S)c1 [Compound 9.19]
[Q] Cc1cccc(Nn2cnc(C)c2C)c1 [Compound 13.08]
Quick one: lower melting point, P or Q ? Your answer should be the label of the entry you select.
Q
(Q: 144 °C, P: 206 °C)

====

test: Cytotoxicity in mock-infected MT-4 cells (MTT); assay type: cell-based; conditions: human; mock-infected MT-4 cells, absorbance reduced by 50%, MTT
measured-property: CC50 (µg/mL)
Give the number; µg/mL is assumed, so skip it.

>>> result_number("Cc1cccc(Nn2c(-c3ccccc3)c(C)[nH]c2=S)c1")
20.7
>>> result_number("Cc1[nH]c(=S)n(Nc2ccccc2)c1-c1ccccc1")
14.7
>>> result_number("Cc1[nH]c(=S)n(Nc2cccc(Cl)c2)c1-c1cccc(Cl)c1")
15.9
>>> result_number("Cc1[nH]c(=S)n(Nc2cccc(Cl)c2)c1-c1cccc(Br)c1")
22.9
>>> result_number("Cc1ncn(Nc2cccc(Cl)c2)c1-c1cccc(Cl)c1")
14.7

Retrieve CC50 measured for `Cc1[nH]c(=S)n(Nc2ccccc2Cl)c1-c1ccccc1` and print it.
65

Retrieve CC50 measured for `Cc1ccc(Nn2c(-c3ccccc3)c(C)[nH]c2=S)cc1C` and print it.
17.9

Retrieve CC50 measured for `Cc1ccc(Nn2c(-c3ccccc3)c(C)[nH]c2=S)cc1Cl` and print it.
16.9

====

test system: HIV-1 (NL4.3 WT); experiment: Inhibition of HIV-induced cytopathogenic effect in MT-4 cells (MTT), HIV-1; format: cell-based; details: Human immunodeficiency virus 1, MT4; 50% protection against HIV-induced cytopathogenic effect, MT-4 cells, MTT
measured-property: IC50 (µg/mL)

[P] S=c1[nH]c2c(n1Nc1cccc(Cl)c1)CCCC2
[Q] Cc1[nH]c(=S)n(Nc2ccccc2Cl)c1-c1ccccc1
[R] Cc1ccc(Nn2c(-c3ccccc3)c(C)[nH]c2=S)cc1C
// TODO: order the 3 compounds above by IC50, descending Kindly provide the labels arranged according to the requested ordering.
P, Q, R
(P: 13.1 µg/mL, Q: 7.4 µg/mL, R: 1.1 µg/mL)

[a] Cc1cc(C)cc(Nn2c(-c3ccccc3)c(C)[nH]c2=S)c1
[b] CCc1[nH]c(=S)n(Nc2cccc(C)c2)c1-c1ccccc1
[c] Cc1ncn(Nc2cccc(Cl)c2)c1-c1cccc(Cl)c1
[d] Cc1[nH]c(=S)n(Nc2cccc(Br)c2)c1-c1ccccc1
Rank descending by IC50. Kindly provide the labels arranged according to the requested ordering.
b, d, a, c
